Quantity Kind: melting point

For orientation, consider the following solved cases.
> print(dat)
                                   molecule         result
1  CC(C)(C)c1ccc(C(=O)N[C@H]2CC[C@H](CCN3CCN(c4nccc5c4CCO5)CC3)CC2)cc1         186 °C
2  CC(C)(C)OC(=O)N1CCC(Nc2nc3ccccc3n2Cc2cnc(CO)o2)CC1         132 °C
3     Cc1oc(-c2ccccc2)nc1CCOc1ccc(CCC#N)cn1  105 to 106 °C
4  CCCCCCCCc1cc2cc(O)ccc2c(Oc2ccc(/C=C/C(=O)O)cc2)c1-c1ccccc1  163 to 164 °C
5          COc1ccc(C(=O)O)c2cc(C3CCCC3)oc12  170 to 171 °C

Request: For the molecule `COc1ccc(CS(=O)(=O)c2cc3cc(Cl)ccc3oc2=O)cc1` , report melting point.
Result: 224 to 226 °C

====

Below, each entry is listed with its recorded melting point.

> print(dat)
                                   compound  quantity.kind         result
1  COc1cc2c(cc1O)CCN(C(=O)NCCN(C(C)C)C(C)C)C2c1ccccc1 (stereo unspecified)  melting point    91 to 92 °C
2  Cc1ccc2nc(C3(c4ccc(S(N)(=O)=O)cc4)C=C(C(F)(F)C(F)(F)F)NN3)sc2c1 (stereo unspecified)  melting point  234 to 235 °C
3  CC(C)(C)OC(=O)N=C(N)N(Cc1ccc(OCCC2Oc3cc([N+](=O)[O-])ccc3N(Cc3cccc(Cl)c3)C2=O)cc1)C(=O)OC(C)(C)C (stereo unspecified)  melting point        67.5 °C
4  Cc1sc2c(Br)c3ccccc3c(-c3cc(Br)c(O)c(C4CCCC4)c3)c2c1C  melting point  190 to 191 °C
5  COc1ccc(NC(=O)c2ccc(OC)c(NC(=S)Nc3cc(Cl)cc(Cl)c3)c2)cc1  melting point  175 to 182 °C

Request: For the compound `CC1(C)OC(=O)Nc2ccc(-c3cc(C#N)ccc3F)cc21` , report melting point.
Result: 229 to 230 °C

Request: For the compound O=C(c1ccc(F)cc1)c1ccc2n1CCC2C(=O)O (stereo unspecified) , report melting point.
Result: 165 °C

Request: For the compound `c1ccc2c(CCCc3nccc4ccccc34)nccc2c1` , report melting point.
Result: 96 to 97 °C

Request: For the compound CC(C)(C)C(NC(=O)C(=O)Nc1cccnc1)NC(=O)c1ccc(Cl)cc1 (stereo unspecified) , report melting point.
Result: 168 to 170 °C

Request: For the compound `Nc1nnc(-c2cc3c(Oc4ccc(Cl)cc4)cncc3s2)s1` , report melting point.
Result: > 270 °C

Request: For the compound `Cc1oc(-c2ccccc2)nc1COc1cc(CO)ccn1` , report melting point.
Result: 100 to 101 °C

Request: For the compound COc1cc2c(cc1OC)OC(C#N)C2 (stereo unspecified) , report melting point.
Result: 162 °C

====

Below, each entry is listed with its recorded melting point.
Number in °C, nothing else.

For orientation, consider the following solved cases.
> print(dat)
                           molecular.string  scale.unit  result.number
1  CCOCc1nc2c(N)nc3cc(O)ccc3c2n1CC(C)(C)NC(C)=O          °C            140
2  COCn1c(C(O)(c2ccc(Cl)cc2)c2ccc(Cl)cc2)nc(C)c1C          °C            151
3  C[C@@H](Nc1ncnc2cc(OCC3CC3)c([N+](=O)[O-])cc12)c1ccccc1          °C            155

Next up:
Request: For the compound `COC(=O)c1ccc(C#Cc2cc(C#Cc3ccc(C(=O)OC)cc3)cc(C#Cc3ccc(C(=O)OC)cc3)c2)cc1` , report melting point.
Result: 177

====

Below, each entry is listed with its recorded melting point.

For orientation, consider the following solved cases.
> print(dat)
                                   compound  quantity.kind         result
1  O=C1c2ccccc2C(=O)C1c1cccc([N+](=O)[O-])c1  melting point  216 to 226 °C
2  COC1(OCCc2nc(C(C)C)c(Sc3cc(Cl)cc(Cl)c3)n2C)C2CC3CC(C2)CC1C3 (stereo not given)  melting point  74.5 to 76 °C
3  COc1cc(Cc2cnc(NC(=O)C(C)(C)C)nc2NC(=O)C(C)(C)C)cc(OC)c1OC  melting point  153 to 154 °C
4  CC(=O)Nc1cccc2c1S(=O)(=O)C(C)C2 (stereo not given)  melting point  115 to 117 °C

Next up:
Request: For the compound CC(Oc1ccc(Oc2ncc(Cl)cc2F)cc1)C(=O)NC=C(C#N)C#N (stereo not given) , report melting point.
Result: 129 to 131 °C

====

Quantity Kind: melting point

> print(dat)
                                   compound         result
1  Cc1cccc(NC(=O)NCC(=O)N(CC(=O)NCC2CC2)c2ccccc2)c1         168 °C
2       CC(C)(C)c1cc(SCCC=O)cc(C(C)(C)C)c1O    64 to 65 °C
3           CCCOc1ccc([N+](=O)[O-])c(C)c1Cl    42 to 43 °C
4  N#Cc1cnc2c(-c3ccncc3)c(-c3ccc(F)cc3)nn2c1N       > 280 °C
5  O=S(=O)(c1ccc(F)cc1)c1c[nH]c2ccc(Br)cc12  163 to 164 °C

Request: For the compound `CCOC(=O)c1cnoc1-c1ccc(C(F)(F)F)cc1` , report melting point.
Result: 42 to 44 °C

Request: For the compound CC(O)(CNc1ccc(S(=O)(=O)c2ccccc2)cc1)C(F)(F)F (stereo not given) , report melting point.
Result: 145 to 146 °C

Request: For the compound `CC(C)C(=O)N=c1ccn(-c2ccccc2)nc1` , report melting point.
Result: 138 °C

Request: For the compound N#CC(C(=O)c1ccncc1)c1ccc(F)cc1 (stereo not given) , report melting point.
Result: 230 to 232 °C

Request: For the compound COC(=O)C1Cc2c([nH]c3ccccc23)CN1C(=S)SC (stereo not given) , report melting point.
Result: 132 to 134 °C

Request: For the compound CC(=O)c1cc2c(cc1F)OC(C)(C)[C@@H](O)[C@@H]2NC(=O)c1ccc(F)cc1 (relative stereo) , report melting point.
Result: 200 to 203 °C

Request: For the compound `COc1cncc(OC)c1C(=O)Nc1ccc(C[C@H](NC(=O)Nc2ccccc2S(=O)(=O)c2ccccc2)C(=O)O)cc1` , report melting point.
Result: 196 °C

Request: For the compound `CCOC(=O)Cc1ccnc(-c2nn(C(C)(C)C)c(N)c2C#N)c1` , report melting point.
Result: 141 to 143 °C

Request: For the compound `COC(=O)c1nc(NC(C)=O)ccc1Oc1cc(OC)cc(OC)n1` , report melting point.
Result: 128 to 130 °C

====

Below, each entry is listed with its recorded melting point.

> print(dat)
                                   compound  quantity.kind         result
1  Cc1nc(C(F)(F)F)ccc1/C=C/C(=O)Nc1ccc2cc[nH]c2c1  melting point         223 °C
2  CC(n1ncnn1)C(O)(c1ccc(Cl)cc1)c1ccc(C(F)(F)F)cc1 (stereo unspecified)  melting point  123 to 125 °C
3                 Nc1c2c(nc3c(O)cccc13)CCC2  melting point  187 to 188 °C
4       C(=Nc1ccc(-c2c[nH]cn2)cc1)Nc1ccccc1  melting point  123 to 124 °C
5  CN1CC=C(c2ccnc(C(=O)N(O)Cc3ccccc3)c2)CC1  melting point  135 to 155 °C
6  CCC(CC)O[C@@H]1C=C(C(=O)OC)C[C@H](CC(O)CO)[C@H]1NC(C)=O (stereo partly specified)  melting point  125 to 126 °C

Request: For the compound `CNS(=O)(=O)c1ccc(-c2coc3ccc(-c4nnc(C)o4)cc23)cc1` , report melting point.
Result: 203 to 204 °C

Request: For the compound `O=C(O)CCC(=NO)c1ccc(-c2ccc(F)cc2)cc1` , report melting point.
Result: 152 to 153 °C

Request: For the compound `COC(=O)c1cccc(-c2cccc([N+](=O)[O-])c2)c1` , report melting point.
Result: 88 to 89 °C

Request: For the compound CCOC(=O)N1CCN(CCS(=O)c2ccccc2)CC1 (stereo unspecified) , report melting point.
Result: 76 °C

Request: For the compound `N=C1SCCN1c1ccc(N)cc1[N+](=O)[O-]` , report melting point.
Result: 138 to 139 °C
